Here we gather pKi data for Beta-secretase 1 (Homo sapiens) reported by several publications.
pKi: −log10 of the molar value.
Property Measured: pKi

CN1C(=N)N[C@](C)(c2sc3c(-c4cnc(C5CC5)nc4)nccc3c2Cl)CS1(=O)=O = 6.79
C[C@@]1(c2sc(C#CC3(c4ccccc4)CCCC3)cc2Cl)CS(=O)(=O)C2(CCC2)C(=N)N1 = 5.59
CN1CC2(C1)C(=N)N[C@](C)(c1cc(NC(=O)c3ccc(F)cn3)ccc1F)CS2(=O)=O = 8.21
CN1C(=N)N[C@](C)(c2sc(-c3cncc(-c4cnco4)c3)cc2Cl)CS1(=O)=O = 7.92
C[C@]1(F)C[C@H](F)[C@@](C)(c2cc(NC(=O)c3ccc(F)cn3)ccc2F)N=C1N = 7.52
Cc1cnc(C(=O)Nc2ccc3c(c2)[C@@]2(C)NC(=N)N(C)S(=O)(=O)[C@H]2CCC3)cn1 = 6.77

----------
Here's a roundup of Ki values tested on Beta-secretase 1 (Homo sapiens, UniProt P56817), taken from various published works.
Property Measured: Ki

C[C@@]1(c2sc(-c3cncnc3)cc2Cl)CS(=O)(=O)C2(CCOCC2)C(=N)N1 = 0.688 µM
O=[N+]([O-])c1ccc(-c2cc(COc3ccccc3C(F)(F)F)c(C3=CCNCC3)cc2COc2ccccc2C(F)(F)F)cc1 = < 3 µM
CN1C(=N)N[C@](C)(c2sc3c(-c4ccc(C5CC5)nc4)cccc3c2F)CS1(=O)=O = 0.327 µM
COc1cnc2c(Nc3cc([C@]4(C)CS(=O)(=O)[C@@](C)(C5CC5)C(N)=N4)c(F)cn3)nccc2n1 = 0.0136 µM
C1=C(c2ccc(-c3ccccc3)cc2)C(COc2ccc3ccccc3c2)CNC1 (centres unmarked) = < 3 µM
OC1CNCC(COc2ccc3ccccc3c2)C1(O)c1ccc(-c2ccccc2)cc1 (centres unmarked) = 3 to 30 µM
N#Cc1ccc(C(=O)Nc2cc(F)c(F)c([C@@]3(CF)N=C(N)CCC3(F)F)c2)nc1 = 0.023 µM
CC[C@H]1[C@@](C)(c2cc(F)ccc2F)NC(=N)N(C)S1(=O)=O = ≥ 5 µM

----------
Here is a set of compounds with reported pKi for Beta-secretase 1 (Homo sapiens, UniProt P56817), compiled from the literature.
pKi: −log10 of the molar value.
Property Measured: pKi

COc1ccc(C(=O)Nc2ccc(F)c([C@]3(C)CS(=O)(=O)C4(CCOCC4)C(=N)N3)c2)nc1 = 7.79
CN1C[C@@](C)(c2cc(NC(=O)C3CC3)ccc2F)NC(=N)C(C)(C)S1(=O)=O = 5.36
CN1C(=N)N[C@](C)(c2cc(-c3nnc(-c4ccc(Cl)cc4)o3)ccc2F)CS1(=O)=O = 5.59
COCc1cc(OC)nc(N2CC3[C@](c4cc(F)c(F)cc4F)(C2)NC(=N)N(C)S3(=O)=O)c1 (stereo partly drawn) = 8.15
C[C@@]1(c2sc(-c3cccc(C#N)c3)cc2Cl)CS(=O)(=O)C2(CCOCC2)C(=N)N1 = 6.95
CN1C(=N)N[C@](C)(c2sc(-c3ccnc(-c4cnco4)c3)cc2F)CS1(=O)=O = 7.63
NC1=N[C@@]2(c3cc(NC(=O)c4ccc(F)cn4)cc(F)c3F)COC[C@H]2C[C@@]1(F)CF = 6.70
NC1=N[C@](CF)(c2cc(NC(=O)c3coc(C(F)F)n3)ccc2F)C(F)(F)CC1 = 7.82
CN1C(=N)N[C@](C)(c2sc(-c3ccnc(-n4cccn4)c3)cc2F)CS1(=O)=O = 6.79
CN1C(=N)N[C@](C)(c2cc(NC(=O)c3ccc(F)cn3)ccc2F)[C@]2(CCN(Cc3ccncc3)C2)S1(=O)=O = 8.10
COc1ccc(C(=O)Nc2ccc(F)c([C@]3(C)CS(=O)(=O)C4(CN(C(C)=O)C4)C(=N)N3)c2)nc1 = 8.80
